Listed here are molecules together with their documented pEC50.
MEASURED ON: RORγt (Homo sapiens)
Construct: half maximal effective concentration against RORγt-LBD+-Jurkat cells
Sequence (P51449 269-508 limits assumed, species assumed): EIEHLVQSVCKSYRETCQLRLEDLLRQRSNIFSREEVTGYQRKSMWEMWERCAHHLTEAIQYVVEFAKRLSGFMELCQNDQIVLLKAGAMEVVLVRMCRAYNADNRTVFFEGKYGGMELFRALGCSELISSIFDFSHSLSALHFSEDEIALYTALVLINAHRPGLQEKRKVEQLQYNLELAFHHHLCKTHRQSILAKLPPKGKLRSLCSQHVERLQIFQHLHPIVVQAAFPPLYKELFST
ASSAY INFO: EC50 test, inhibition of RORγt transcription activity (luciferase activity reporter system) in RORγt-LBD+-Jurkat cells
ASSAY CONDITIONS: half maximal effective concentration against RORγt-LBD+-Jurkat cells
pEC50: −log10 of the molar value.
OBSERVABLE: pEC50

Cc1nc(Sc2nnnn2-c2ccccc2)c2c3c(sc2n1)CC(C)CC3 (stereo not drawn) [Compound 7]: < 5.00
O=C(Cc1nc(Sc2nnnn2-c2ccccc2)c2c3c(sc2n1)CCCC3)Nc1nc2ccccc2[nH]1 [Compound 31]: 6.07
Cc1nc(Sc2nnnn2-c2ccccc2)c2c3c(sc2n1)CC(F)(F)CC3 [Compound 12]: 5.87
Cc1cccc(NC(=O)C2CCc3c(sc4nc(C)nc(Sc5nnnn5-c5ccccc5)c34)C2)c1 (stereo not drawn) [Compound 16]: < 5.00
Cc1nc(Sc2nnnn2-c2ccccc2)c2c3c(sc2n1)CC(C(=O)Nc1cccnc1)CC3 (stereo not drawn) [Compound 23]: < 5.00
Cc1nc(Sc2nnnn2-c2ccccc2)c2c3c(sc2n1)CC(C(=O)Nc1ccc(C(C)C)cc1)CC3 (stereo not drawn) [Compound 17]: < 5.00
Cc1nc(Sc2nnnn2-c2ccccc2)c2c3c(sc2n1)CC(C(=O)Nc1ccc(F)cn1)CC3 (stereo not drawn) [Compound 24]: < 5.00
CCC1CCc2c(sc3nc(C)nc(Sc4nnnn4-c4ccccc4)c23)C1 (stereo not drawn) [Compound 8]: < 5.00
Cc1nc(Sc2nnnn2-c2ccccc2)c2c3c(sc2n1)CC(C(=O)NC1CCOCC1)CC3 (stereo not drawn) [Compound 15]: < 5.00
Cc1nc(Sc2nnnn2-c2ccccc2)c2c3c(sc2n1)CC(C(C)(C)C)CC3 (stereo not drawn) [Compound 11]: 5.08
Cc1nc(Sc2nnnn2-c2ccccc2)c2c3c(sc2n1)CC(C(=O)O)CC3 (stereo not drawn) [Compound 14]: < 4.70
Cc1nc(Sc2nnnn2-c2ccccc2)c2c3c(sc2n1)CC(C(=O)NCc1ccccc1)CC3 (stereo not drawn) [Compound 18]: 4.90
Cc1nc(Sc2nnnn2-c2ccccc2)c2c3c(sc2n1)CC(C(=O)Nc1ccc(Br)cc1)CC3 (stereo not drawn) [Compound 20]: < 5.00
Cc1nc(Sc2nnnn2-c2ccccc2)c2c3c(sc2n1)CC(C(=O)Nc1nc2ccc(F)cc2s1)CC3 (stereo not drawn) [Compound 25]: < 5.00
Cc1nc(Sc2nnnn2-c2ccccc2)c2c3c(sc2n1)CC(C(=O)Nc1nccs1)CC3 (stereo not drawn) [Compound 21]: < 5.00

Each recorded value in this set is attributed to patent US20220227782A1.
